Target: the molecule itself
Experiment: SEC; analytical HPLC, Phenomenex BioSep-SEC-S3000, 50 uM enzyme, 100 mM Tris-HCl pH 7.4, 50 mM NaCl, 1 mL/min; samples reduced with TCEP and then oxidised (disulfide) with 1.2 molar equivalents of H2O2 for 30 min at 25 C; dimers to decamer
Metric Name: stoichiometry N
Form: value (number only, do not type unit).

# input Respond only with stoichiometry N recorded for Tsa1^T44V (enzyme) MVAQVQKQAPTFKKTAVVDGVFDEVSLDKYKGKYVVLAFIPLAFVFVCPTEIIAFSEAAKKFEEQGAQVLFASTDSEYSLLAWTNIPRKEGGLGPINIPLLADTNHSLSRDYGVLIEEEGVALRGLFIIDPKGVIRHITINDLPVGRNVDEALRLVEAFQWTDKNGTVLPCNWTPGAATIKPTVEDSKEYFEAANK
# output 2

# input Give the reported stoichiometry N for this protein. Tsa2^WT (typical 2-Cys peroxiredoxin Tsa2 from S. cerevisiae) (enzyme, Tsa2, typical 2-Cys peroxiredoxin of Saccharomyces cerevisiae (86% identity with Tsa1; Ser45 in place of Thr44 of Tsa1); Decamer in both redox states by SEC; source: E. coli BL21 (DE3), pPROEx/tsa2, purified (IMAC on HisTrap, PD10 desalting); not shown: His tag (from the vector pPROEx); copies: 10) MVAEVQKQAPPFKKTAVVDGIFEEISLEKYKGKYVVLAFVPLAFSFVCPTEIVAFSDAAKKFEDQGAQVLFASTDSEYSLLAWTNLPRKDGGLGPVKVPLLADKNHSLSRDYGVLIEKEGIALRGLFIIDPKGIIRHITINDLSVGRNVNEALRLVEGFQWTDKNGTVLPCNWTPGAATIKPDVKDSKEYFKNANN
# output 10

# input Specify reported stoichiometry N for the protein shown: Tsa1^Y77A (enzyme) MVAQVQKQAPTFKKTAVVDGVFDEVSLDKYKGKYVVLAFIPLAFTFVCPTEIIAFSEAAKKFEEQGAQVLFASTDSEASLLAWTNIPRKEGGLGPINIPLLADTNHSLSRDYGVLIEEEGVALRGLFIIDPKGVIRHITINDLPVGRNVDEALRLVEAFQWTDKNGTVLPCNWTPGAATIKPTVEDSKEYFEAANK
# output 2

# input Report stoichiometry N for Tsa1^S78D (enzyme) MVAQVQKQAPTFKKTAVVDGVFDEVSLDKYKGKYVVLAFIPLAFTFVCPTEIIAFSEAAKKFEEQGAQVLFASTDSEYDLLAWTNIPRKEGGLGPINIPLLADTNHSLSRDYGVLIEEEGVALRGLFIIDPKGVIRHITINDLPVGRNVDEALRLVEAFQWTDKNGTVLPCNWTPGAATIKPTVEDSKEYFEAANK
# output 2
